Multiple publications report Ki for Oxytocin receptor (Homo sapiens); what follows is a combined list.
Hi! Could you send only the number? It should be in nM, unit omitted.

CC(=O)Nc1ccc([C@H](C(=O)NC(C)(C)C)N2C(=O)[C@@H](C3Cc4ccccc4C3)NC(=O)[C@H]2CC(C)C)cc1 :: 2
CC(=O)Nc1ccc([C@H](C(=O)NC(C)C)N2C(=O)[C@@H](C3Cc4ccccc4C3)NC(=O)[C@H]2CC(C)C)cc1 :: 1.58
COc1ccc(S(=O)(=O)N2C(=O)[C@@](c3cc(CN4CCN(C)CC4)ccc3OC)(N3CCC[C@H]3c3ncco3)c3cc(Cl)ccc32)cc1 :: 89
CN(C)CCCOc1ccc(S(=O)(=O)N(CC(=O)N/N=C2\C(=O)N(CC(N)=O)c3ccccc32)c2ccc(Cl)cc2)cc1 :: 322
COc1ccc(S(=O)(=O)N2C(=O)[C@@](c3cccnc3OC)(N3C[C@H](O)C[C@H]3C(=O)N(C)C)c3cc(Cl)ccc32)c(OC)c1 :: 42
CC[C@H](C)[C@@H]1NC(=O)[C@H](Cc2ccc(O)cc2)NC(=O)CCSCc2ccccc2CSC[C@@H](C(=O)N2CCC[C@H]2C(=O)N[C@@H](CC(C)C)C(=O)NCC(N)=O)NC(=O)[C@H](CC(N)=O)NC(=O)[C@H](CCC(N)=O)NC1=O :: 220
Cc1ccc([C@@H](C(=O)NC(C)C)N2C(=O)[C@@H](C3Cc4ccccc4C3)NC(=O)[C@H]2CC(C)C)cc1 :: 50.1
C/C(=N\NC(=O)CN(c1ccccc1)S(=O)(=O)c1ccccc1)c1ccccc1O :: 237
Cc1ccc([C@H](C(=O)NC(C)C)N2C(=O)[C@@H](C3Cc4ccccc4C3)NC(=O)[C@H]2CC(C)C)cc1 :: 3.98
CC(C)C[C@@H]1C(=O)N[C@H](C2Cc3ccccc3C2)C(=O)N1[C@H](C(=O)NC(C)C)c1ccc(S(C)(=O)=O)cc1 :: 100

# input for lookup
Noted Ki for CC(=O)CCCC(=O)NC1N=C(C2CCCCC2)c2ccccc2N(CC(=O)N[C@@H](Cc2ccc(Cl)c(Cl)c2)C(N)=O)C1=O (stereo not given in full) , tested on Oxytocin receptor (Homo sapiens): 31.6

###

Field Ki: reported value for Oxytocin receptor (Homo sapiens); entries drawn from several documents.
Give the quantity in nM, number only.

Notebook: CC(C)C[C@@H]1C(=O)N[C@H](C2Cc3ccccc3C2)C(=O)N1[C@@H](C(=O)NC(C)(C)C)c1ccc(OC(F)(F)F)cc1 , Ki read as 5.01

response.value for CCOc1ccc(S(=O)(=O)N(CC(=O)N/N=C/c2ccccn2)c2ccc(Cl)cc2)cc1 (field: Ki) = 2750

The measured Ki associated with CC(=O)CCCC(=O)NC1N=C(C)c2ccccc2N(CC(=O)N[C@@H](Cc2ccc(Cl)c(Cl)c2)C(N)=O)C1=O (some centres undefined) reads 200

###

Collected from the literature: pKi of various compounds toward Oxytocin receptor (Homo sapiens).
# Measurement Target: Oxytocin receptor (Homo sapiens)
# Sequence (P30559 whole entry): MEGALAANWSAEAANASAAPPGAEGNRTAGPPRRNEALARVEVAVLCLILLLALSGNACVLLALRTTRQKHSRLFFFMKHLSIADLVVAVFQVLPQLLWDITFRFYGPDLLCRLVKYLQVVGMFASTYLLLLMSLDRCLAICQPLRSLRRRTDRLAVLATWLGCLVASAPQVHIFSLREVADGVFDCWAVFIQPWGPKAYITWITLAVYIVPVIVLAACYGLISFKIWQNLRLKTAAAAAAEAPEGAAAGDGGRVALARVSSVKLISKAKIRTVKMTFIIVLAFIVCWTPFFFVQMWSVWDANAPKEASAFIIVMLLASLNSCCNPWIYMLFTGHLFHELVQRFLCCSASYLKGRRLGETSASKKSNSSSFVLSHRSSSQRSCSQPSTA
pKi: −log10 of the molar value.

// below: answered compounds
CC[C@H](C)[C@@H]1NC(=O)[C@H](Cc2ccc(O)cc2)NC(=O)[C@@H](N)CSSC[C@@H](C(=O)N2CCC[C@H]2C(=O)N(C)[C@@H](CC(C)C)C(=O)NCC(N)=O)NC(=O)[C@H](CC(N)=O)NC(=O)[C@H](CCC(N)=O)NC1=O :: 9.01
COc1cc(CN2CCN(CCCCC(=O)N3Cc4cnn(C)c4Nc4ccccc43)CC2)cc(OC)c1 :: < 5.00

Shift focus to the following entry.
GET /value?item= CCOc1ccc(S(=O)(=O)N(CC(=O)/N=N/c2c(O)[nH]c3ccc(S(=O)(=O)O)cc23)c2ccc(C)cc2)cc1 &field=pKi returns < 5.00

###

What follows is literature data on pKi for the protein given by its sequence.
Target chain: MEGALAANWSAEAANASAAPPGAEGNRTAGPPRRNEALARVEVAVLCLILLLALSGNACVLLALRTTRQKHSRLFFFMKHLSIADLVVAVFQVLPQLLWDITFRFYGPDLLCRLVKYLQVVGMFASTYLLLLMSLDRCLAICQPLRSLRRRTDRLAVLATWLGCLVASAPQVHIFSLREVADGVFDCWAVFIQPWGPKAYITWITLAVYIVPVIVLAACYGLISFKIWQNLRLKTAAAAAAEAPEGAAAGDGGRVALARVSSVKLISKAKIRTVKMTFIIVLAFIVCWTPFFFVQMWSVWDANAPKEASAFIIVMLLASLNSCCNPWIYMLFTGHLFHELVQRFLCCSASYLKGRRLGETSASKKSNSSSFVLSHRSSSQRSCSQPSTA
pKi: −log10 of the molar value.

CCCc1ccc(S(=O)(=O)N(CC(=O)N/N=C2\C(=O)Nc3ccccc32)c2ccc(Cl)cc2)cc1 :: 7.44
CCOc1ccc(S(=O)(=O)N(CC(=O)N/N=C/c2ccccc2N)c2ccc(C)cc2)cc1 :: < 5.00
COc1cc(CN2CCN(c3ccc(CC(=O)N4Cc5cnn(C)c5Nc5ccccc54)cc3)CC2)cc(OC)c1 :: < 5.00
O=S(=O)(Nc1ccnn1-c1ccccn1)c1ccc(Cl)cc1 :: < 5.00
CCOc1ccc(S(=O)(=O)N(CC(=O)N/N=C2\C(=O)Nc3ccncc32)c2ccc(Cl)cc2)cc1 :: 7.19
COc1cc(CN2CCN(CCCCCCCC(=O)N3Cc4cnn(C)c4Nc4ccccc43)CC2)cc(OC)c1 :: < 5.00

The reported pKi value, the protein given by its sequence, for COc1ccc(S(=O)(=O)N2C(=O)[C@@](c3cc(CN4CCCC4)ccc3OC)(N3CCC[C@H]3c3ncco3)c3cc(Cl)ccc32)cc1 reads 6.77

The molecule CCOc1ccc(S(=O)(=O)N(CC(=O)/N=N/c2c(O)[nH]c3ccc([N+](=O)[O-])cc23)c2ccccc2)cc1 , tested on the protein given by its sequence, showed pKi of < 5.00

###

Header: pKi / Oxytocin receptor (Homo sapiens) / multiple publications
# Measurement Target: Oxytocin receptor (Homo sapiens)
# Sequence (P30559 whole entry): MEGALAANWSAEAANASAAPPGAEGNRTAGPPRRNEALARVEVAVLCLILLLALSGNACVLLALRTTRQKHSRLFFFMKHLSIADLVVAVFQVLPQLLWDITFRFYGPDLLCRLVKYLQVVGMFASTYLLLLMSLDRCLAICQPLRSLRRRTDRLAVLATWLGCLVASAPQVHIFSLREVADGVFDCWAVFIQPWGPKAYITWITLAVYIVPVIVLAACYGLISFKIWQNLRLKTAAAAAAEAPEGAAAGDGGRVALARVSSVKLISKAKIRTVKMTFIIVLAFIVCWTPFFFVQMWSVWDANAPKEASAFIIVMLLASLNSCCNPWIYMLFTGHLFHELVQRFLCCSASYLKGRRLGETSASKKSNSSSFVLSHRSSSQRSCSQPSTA
pKi: −log10 of the molar value.
# cutoff 7 applies to pKi; >= gives satisfied, < gives not satisfied

Sample answers from the record:
Cn1nccc1NS(=O)(=O)c1ccc(C(F)(F)F)cc1 :: not satisfied
Cn1ncc2c1Nc1ccccc1N(C(=O)CCCCN1CCN(Cc3cc(O)cc(O)c3)CC1)C2 :: not satisfied
COc1ccc(S(=O)(=O)N2C(=O)[C@@](c3cc(CN4CCCC4)ccc3OC)(N3CCC[C@H]3C(=O)N(C)C)c3cc(Cl)ccc32)c(OC)c1 :: satisfied
CC[C@H](C)[C@@H]1NC(=O)[C@H](Cc2ccc(O)cc2)NC(=O)[C@@H](N)CSSC[C@@H](C(=O)N2CCC[C@H]2C(=O)N[C@@H](CC(C)C)C(=O)NCC(N)=O)NC(=O)[C@H](CC(N)=O)NC(=O)[C@H](CCC(N)=O)N(C)C1=O :: not satisfied
CC[C@H](C)[C@@H]1NC(=O)[C@H](Cc2ccc(O)cc2)NC(=O)[C@@H](N)CSSC[C@@H](C(=O)N2CCC[C@H]2C(=O)N[C@@H](CC(C)C)C(=O)N(C)CC(N)=O)N(C)C(=O)[C@H](CC(N)=O)NC(=O)[C@H](CCC(N)=O)NC1=O :: satisfied

*Q* Please check the record CC(=O)Nc1cccc([C@H](C(=O)NC(C)(C)C)N2C(=O)[C@@H](C3Cc4ccccc4C3)NC(=O)[C@H]2CC(C)C)c1 and state if its pKi is at or above 7.
*A* satisfied

*Q* Assess whether reported pKi for CCOc1ccc(S(=O)(=O)N(CC(=O)N/N=C(\C)c2ccc(O)cc2O)c2ccc(C)cc2)cc1 sits at 7 or higher.
*A* not satisfied

*Q* Is reported pKi greater than or equal to 7 here: CN[C@@H](CCS(C)(=O)=O)C(=O)N[C@H]1C[C@H]2CC[C@]1(CS(=O)(=O)N1CCN(c3ccccc3C)CC1)C2(C)C
*A* satisfied

*Q* API: above_or_equal(metric=pKi, cutoff=7) for item O=C(CCc1ccc(S(=O)(=O)N(CC(=O)N/N=C2\C(=O)Nc3ccccc32)c2ccc(Cl)cc2)cc1)NCCCO
*A* satisfied

*Q* Please check the record COc1ccc(S(=O)(=O)N2C(=O)[C@@](c3nccnc3OC)(N3C[C@H](O)C[C@H]3C(=O)N(C)C)c3cc(Cl)ccc32)c(OC)c1 and state if its pKi is at or above 7.
*A* not satisfied
